Target: Nicotinamide N-methyltransferase (Homo sapiens) (UniProt P40261)
Sequence (P40261 whole entry, looked up): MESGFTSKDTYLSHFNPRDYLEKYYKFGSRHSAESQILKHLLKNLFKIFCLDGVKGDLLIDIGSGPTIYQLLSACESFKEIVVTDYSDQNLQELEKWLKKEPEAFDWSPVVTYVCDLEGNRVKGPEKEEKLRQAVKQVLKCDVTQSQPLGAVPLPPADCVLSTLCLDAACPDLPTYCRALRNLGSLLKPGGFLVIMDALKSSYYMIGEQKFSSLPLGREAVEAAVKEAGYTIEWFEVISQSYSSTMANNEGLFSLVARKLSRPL
Assay: Confirmatory Screen for Target Class Profiling of Small Molecule Inhibitors of Methyltransferases (AID 1745852)
Conditions: MTase-Glo luminescence, SAH detection, recombinant enzyme; measured here: NNMT max response; stronger effect = lower value
Measured activity values are reported for all entries that follow.
Numeric only. Scale: %

// known answers, use as guide
| molecule | study-target | activity, % |
| --- | --- | --- |
| CC(C)OCCCn1c(=O)c2ccccc2n2c(CCC(=O)N3CCN(c4cccc(Cl)c4)CC3)nnc12 | Nicotinamide N-methyltransferase (Homo sapiens) (UniProt P40261) | -39.1 |
| COc1ccc(CCNC(=O)c2ccc3c(=O)nc4c(-c5ccccc5)n[nH]n4c3c2)cc1OC | Nicotinamide N-methyltransferase (Homo sapiens) (UniProt P40261) | -10.5 |
| O=C(Nc1ccc2c(N3CCCC3)ncnc2c1)c1cc(F)ccc1Cl | Nicotinamide N-methyltransferase (Homo sapiens) (UniProt P40261) | -15.4 |
| CCCC1c2cccn2CCN1C(=O)Nc1ccc(Br)cc1 (stereo not drawn) | Nicotinamide N-methyltransferase (Homo sapiens) (UniProt P40261) | -18.3 |
| Cc1noc2c(N3CCOCC3)cc(-c3cccs3)nc12 | Nicotinamide N-methyltransferase (Homo sapiens) (UniProt P40261) | -22.1 |

Query :: // activity lookup, key: Cc1ccc2c(c1)c(-n1cccc1)c1n2CC(C)(C(=O)NC2CCCCC2)N(Cc2ccccn2)C1=O (stereo not drawn)
Result :: -16.5

Query :: Given COc1cc2nc(N3CCCCC3)nc(NC3CCN(C)CC3)c2cc1OC , state its recorded activity.
Result :: -11.7

Query :: Return reported activity; argument: Cn1c(=O)n(C)c2cc(S(=O)(=O)Nc3cc4c(cc3NCc3ccccc3)n(C)c(=O)n4C)ccc21
Result :: -35.1

* * *

Target: Cytochrome P450 2C19 (Homo sapiens) (UniProt P33261)
Sequence (P33261 whole entry, looked up): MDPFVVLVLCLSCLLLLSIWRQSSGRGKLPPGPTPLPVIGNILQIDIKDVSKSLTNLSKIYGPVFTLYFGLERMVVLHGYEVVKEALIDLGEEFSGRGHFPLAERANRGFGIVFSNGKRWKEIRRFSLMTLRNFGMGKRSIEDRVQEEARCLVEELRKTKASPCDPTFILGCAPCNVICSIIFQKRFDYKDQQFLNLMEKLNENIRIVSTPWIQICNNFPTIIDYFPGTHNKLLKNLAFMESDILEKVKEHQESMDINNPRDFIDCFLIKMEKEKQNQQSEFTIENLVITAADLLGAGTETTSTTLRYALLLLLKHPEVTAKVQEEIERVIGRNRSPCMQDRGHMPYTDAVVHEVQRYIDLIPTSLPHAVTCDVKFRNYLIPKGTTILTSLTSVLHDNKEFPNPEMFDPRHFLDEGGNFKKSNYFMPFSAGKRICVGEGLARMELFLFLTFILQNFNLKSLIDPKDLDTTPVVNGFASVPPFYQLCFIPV
Experiment: qHTS for inhibitors of CYP2C19 against the NCATS DSHEA and TCM libraries (AID 1919974);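 also: luminescence from luciferin released by CYP2C19 oxidation of a pro-luciferin substrate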
Settings: CYP2C19 enzyme inhibition, luminescence qHTS; series mostly up to 34.1 µM
Inconclusive results are not listed. Activity calls are given as the source filed them. The call rests on the fitted dose curve; in most records, active means well fitted inhibition curve with a large enough effect; inconclusive means small, poorly fitted or top-dose-only effect; inactive means no such curve, though single readings can be large or run the other way.
Returns: one label drawn from label 1 = active, label 0 = inactive

Past entries and their recorded results:
| compound | class-name |
| --- | --- |
| C=CC(=C)CCC=C(C)C | label 0 |
| CCCCCCCCC[C@@H](O)CC(=O)CCc1ccc(O)c(OC)c1 | label 1 |

Query :: What is the recorded call for this compound in the test? OCC1=C[C@@H](O)[C@@H]2C=CO[C@@H](OC3O[C@H](CO)[C@@H](O)[C@H](O)[C@H]3O)[C@H]12 (stereo partly drawn)
Result :: label 0

* * *

Molecular target: Rap guanine nucleotide exchange factor 3 (Homo sapiens) (UniProt O95398)
Sequence (O95398 whole entry, looked up): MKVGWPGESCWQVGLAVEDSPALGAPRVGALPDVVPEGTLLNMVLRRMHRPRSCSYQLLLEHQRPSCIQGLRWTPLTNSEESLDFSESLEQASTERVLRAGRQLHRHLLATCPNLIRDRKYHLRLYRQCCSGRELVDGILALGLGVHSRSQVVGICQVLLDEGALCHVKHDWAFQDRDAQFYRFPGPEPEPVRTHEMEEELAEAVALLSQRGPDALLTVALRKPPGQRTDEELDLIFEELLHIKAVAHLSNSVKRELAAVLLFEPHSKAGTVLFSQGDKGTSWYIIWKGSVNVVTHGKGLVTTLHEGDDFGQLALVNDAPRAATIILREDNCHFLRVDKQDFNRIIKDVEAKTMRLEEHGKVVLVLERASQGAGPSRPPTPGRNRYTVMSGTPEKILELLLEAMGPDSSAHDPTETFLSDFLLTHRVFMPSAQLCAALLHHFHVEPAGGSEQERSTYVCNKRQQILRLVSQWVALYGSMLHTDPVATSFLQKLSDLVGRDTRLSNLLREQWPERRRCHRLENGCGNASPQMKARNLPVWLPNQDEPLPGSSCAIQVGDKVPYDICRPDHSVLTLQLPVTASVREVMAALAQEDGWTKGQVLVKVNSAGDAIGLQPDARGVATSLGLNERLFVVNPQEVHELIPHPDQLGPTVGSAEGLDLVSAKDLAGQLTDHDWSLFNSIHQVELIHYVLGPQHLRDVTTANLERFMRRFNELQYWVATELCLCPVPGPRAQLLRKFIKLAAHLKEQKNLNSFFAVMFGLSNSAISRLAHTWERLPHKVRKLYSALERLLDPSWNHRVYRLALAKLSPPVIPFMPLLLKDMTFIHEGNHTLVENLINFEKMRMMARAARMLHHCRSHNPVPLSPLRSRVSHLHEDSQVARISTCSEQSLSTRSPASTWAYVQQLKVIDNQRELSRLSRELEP
Experiment: Counterscreen qHTS for antagonist of cAMP-regulated guanine nucleotide exchange factor 3 (EPAC1) (AID 1645888);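 also: fluorescence loss as bound BODIPY-GDP is released from Rap1B; % of control where 0% means no effect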
Conditions: Rap1B-BODIPY-GDP nucleotide exchange, fluorescence; series mostly up to 154 µM
Results filed as inconclusive are left out. The source made the active and inactive calls. The call rests on the fitted dose curve; in most records, active means well fitted inhibition curve with a large enough effect; inconclusive means small, poorly fitted or top-dose-only effect; inactive means no such curve, though single readings can be large or run the other way.
reported-property: activity change, negative = inhibition

| entry-smiles | activity change, negative = inhibition |
| --- | --- |
| CCOC(=O)c1cc2c(=O)n3ccccc3nc2n(Cc2ccco2)c1=NC(=O)c1c(F)cccc1Cl | inactive |
| CCOC(=O)c1ccccc1NC(=O)CSc1nc2c(sc(=S)n2CC)c(=O)[nH]1 | -2.38% [at 30.8 µM] (inactive) |
| COc1cc(/C=N/NS(=O)(=O)c2ccc3ccccc3c2)ccc1OCc1ccc(C(=O)O)cc1 | inactive |
| CCc1ccccc1N(C)S(=O)(=O)c1ccc2[nH]cc(C(=O)N3CCc4ccccc43)c(=O)c2c1 | -6.13% [at 30.8 µM] (inactive) |
| COc1ccc(C)cc1Cn1nnc2ccccc21 | inactive |
| CCN(CC(=O)Nc1ccc(OC)cc1)C(=O)Cc1cccs1 | inactive |

Turning to the following compound.
Query :: Given CN(CCOc1ccc(Br)cc1)C(=O)CNC(=O)c1ccc2ccccc2c1 , state its recorded activity change, negative = inhibition.
Result :: -17.3% [at 30.8 µM] (inactive)

* * *

Target: Rap guanine nucleotide exchange factor 3 (Homo sapiens)
Assay: Counterscreen qHTS for antagonist of cAMP-regulated guanine nucleotide exchange factor 3 (EPAC1) (AID 1645888);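 also: fluorescence loss as bound BODIPY-GDP is released from Rap1B; % of control where 0% means no effect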
Conditions: Rap1B-BODIPY-GDP nucleotide exchange, fluorescence; series mostly up to 154 µM
Inconclusive results are not listed. Activity calls are given as the source filed them. Calls follow the shape of the dose curve; as a rule, active = well fitted inhibition curve with a large enough effect; inconclusive = small, poorly fitted or top-dose-only effect; inactive = no such curve, though single readings can be large or run the other way.
reported-property: activity change, negative = inhibition

Below are worked cases with known answers.
| molecule | reported-property | result |
| --- | --- | --- |
| O=C1/C(=C\c2cc(Cl)c(O)c(Cl)c2)SC(=S)N1Cc1ccccc1 | activity change, negative = inhibition | inactive |
| COc1cc(/C=C2\C(=N)N3N=C(S(C)(=O)=O)SC3=NC2=O)cc(OC)c1OCCOc1ccccc1C | activity change, negative = inhibition | inactive |
| CC(C)CCNc1nc(-c2ccco2)c2c(c1C#N)CCCC2 | activity change, negative = inhibition | inactive |
| Cc1cccc(NC(=O)COC(=O)c2c(-c3ccccc3)noc2C)c1 | activity change, negative = inhibition | -6.85% [at 30.8 µM] (inactive) |

Query :: May I ask what activity change, negative = inhibition has been recorded for O=C1CSC(c2cccc(Cl)c2Cl)N1c1ccccn1 (stereo not given) ?
Result :: -6.53% [at 30.8 µM] (inactive)

* * *

Biological target: Rap guanine nucleotide exchange factor 3 (Homo sapiens) (UniProt O95398)
Experiment: Counterscreen qHTS for antagonist of cAMP-regulated guanine nucleotide exchange factor 3 (EPAC1) (AID 1645888);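 also: fluorescence loss as bound BODIPY-GDP is released from Rap1B; % of control where 0% means no effect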
Details: Rap1B-BODIPY-GDP nucleotide exchange, fluorescence; series mostly up to 154 µM
Records with an inconclusive call do not appear. Active and inactive are the calls of the source. The call rests on the fitted dose curve; in most records, active means well fitted inhibition curve with a large enough effect; inconclusive means small, poorly fitted or top-dose-only effect; inactive means no such curve, though single readings can be large or run the other way.
reported-property: activity change, negative = inhibition

| compound | reported-property | result |
| --- | --- | --- |
| CCOc1nc(-c2ccccc2)c2cc(C)ccc2n1 | activity change, negative = inhibition | inactive |
| CCOC(=O)C(C(C)C)C(N)Cc1ccc(F)cc1 (configuration not stated) | activity change, negative = inhibition | inactive |
| CC(C)CCn1c(Oc2ccccc2F)nc2c1c(=O)n(C)c(=O)n2C | activity change, negative = inhibition | inactive |
| COc1ccc(-c2cc(N)n(S(=O)(=O)c3c(F)c(F)c(F)c(F)c3F)n2)cc1OC | activity change, negative = inhibition | 6.6% [at 30.8 µM] (inactive) |
| COc1cc2c(c(OC)c1OC)C(c1ccccc1C)CC(=O)O2 (configuration not stated) | activity change, negative = inhibition | inactive |
| COC(=O)C1=C(C(=O)OC)[C@@H]2N(Cc3ccccc3)c3ccccc3[C@@]23C[C@@H](C(=O)OC)N=C3N1 | activity change, negative = inhibition | 17% [at 30.8 µM] (inactive) |
| CCCC(C(=O)Nc1ccc(S(=O)(=O)Nc2nccs2)cc1)c1ccccc1 (configuration not stated) | activity change, negative = inhibition | -24.2% [at 30.8 µM] (inactive) |
| CCOC(=O)C1=C(C)N=c2s/c(=C\c3ccc(OCC(=O)O)cc3)c(=O)n2C1c1ccc(OC(C)C)cc1 (configuration not stated) | activity change, negative = inhibition | inactive |

Query :: Which measured activity change, negative = inhibition value corresponds to COc1ccc2cc(S(=O)(=O)N3CCCC3)ccc2c1 ?
Result :: -17.9% [at 30.8 µM] (inactive)

Query :: Item CSc1ccccc1NC(=O)CN(c1ccccc1)S(=O)(=O)N(C)C has what recorded activity change, negative = inhibition?
Result :: inactive

Query :: Which measured activity change, negative = inhibition value corresponds to O=C(O)c1ccc(NC(=O)C(c2ccccc2)c2ccccc2)cc1 ?
Result :: inactive

Query :: Suppose we examine the compound COc1ccc(C(CC(=O)c2ccc(C)cc2)C(C#N)C#N)cc1OC (configuration not stated) ; what activity change, negative = inhibition value has been reported?
Result :: inactive

Query :: # input compound: CC(NC1=CC(=O)c2cccnc2C1=O)C(O)c1ccccc1 (configuration not stated) ; wanted: its activity change, negative = inhibition
Result :: inactive

Query :: Returns the measured activity change, negative = inhibition for the input compound. Input: Cc1ccc(Nc2c([N+](=O)[O-])c(=O)oc3ccccc23)cc1C
Result :: inactive

Query :: For the compound shown here, O=C(OCC1OC(n2ncc(=O)[nH]c2=O)C(OC(=O)c2ccccc2)C1OC(=O)c1ccccc1)c1ccccc1 (configuration not stated) , give the reported activity change, negative = inhibition.
Result :: -8.49% [at 30.8 µM] (inactive)

Query :: What does the record list as activity change, negative = inhibition for COc1cccc(/C=C2\SC(=S)NC2=O)c1OS(=O)(=O)c1ccc(NC(C)=O)cc1 ?
Result :: -18.9% [at 30.8 µM] (inactive)

* * *

Biological target: Rap guanine nucleotide exchange factor 3 (Homo sapiens)
Assay: Counterscreen qHTS for antagonist of cAMP-regulated guanine nucleotide exchange factor 3 (EPAC1) (AID 1645888);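 also: fluorescence loss as bound BODIPY-GDP is released from Rap1B; % of control where 0% means no effect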
Conditions: Rap1B-BODIPY-GDP nucleotide exchange, fluorescence; series mostly up to 154 µM
Records with an inconclusive call do not appear. Active and inactive are the calls of the source. Calls follow the shape of the dose curve; as a rule, active = well fitted inhibition curve with a large enough effect; inconclusive = small, poorly fitted or top-dose-only effect; inactive = no such curve, though single readings can be large or run the other way.
reported-property: activity change, negative = inhibition

Worked cases, answers included:
| molecule | reported-property | result |
| --- | --- | --- |
| CCOc1ccccc1Cn1c(=O)oc2ccc(C)cc21 | activity change, negative = inhibition | inactive |
| CC1CCN(c2oc(-c3ccccc3F)nc2C#N)CC1 | activity change, negative = inhibition | inactive |
| CN(C)c1ccc(/C=C(/C(=O)c2ccc(Cl)cc2Cl)n2cncn2)cc1 | activity change, negative = inhibition | inactive |
| O=C(O)CCn1cc(C2CC(c3ccccc3)=NN2c2ccccc2)c(-c2ccccc2)n1 (centres undefined) | activity change, negative = inhibition | inactive |
| Cc1ccccc1-n1c(O)c(/C=C/C=Nc2ccccc2)c(=O)[nH]c1=O | activity change, negative = inhibition | inactive |

Query :: Consider the molecule shown here: CNc1nc(C)cc(C)c1S(=O)(=O)c1ccc(C)cc1 What is its recorded activity change, negative = inhibition?
Result :: -11.2% [at 30.8 µM] (inactive)

Query :: Using the record for N#C/C(=C/c1cccn1-c1cccc(C(=O)O)c1)c1ccc(F)cc1 , report its activity change, negative = inhibition.
Result :: -6.54% [at 30.8 µM] (inactive)

Query :: Form field: reported activity change, negative = inhibition of O=c1ccc(NS(=O)(=O)c2ccc(Cl)cc2)cn1Cc1ccc(Cl)c(Cl)c1
Result :: inactive

Query :: If you can, please state the reported activity change, negative = inhibition value of C/C(=N\NC(=O)c1cc2ccccc2cc1O)c1ccc(C)o1 .
Result :: -5.69% [at 30.8 µM] (inactive)

Query :: Endpoint output: activity change, negative = inhibition of O=C(O)c1cccc(-c2ccc(/C=c3/sc4nc5ccccc5n4c3=O)o2)c1 . Value?
Result :: inactive

Query :: Could you share which activity change, negative = inhibition value was measured for O=C(Cc1ccccc1Cl)Nc1ccc(S(=O)(=O)N2CCOCC2)cc1 ?
Result :: inactive

Query :: Any idea what activity change, negative = inhibition was measured for O=C(O)c1cc(-c2ccc(/C=C3/SC(=S)N(Cc4ccccc4)C3=O)o2)ccc1Cl ?
Result :: -11.2% [at 30.8 µM] (inactive)

Query :: Suppose we examine the molecule CCOc1ccc(NC(=O)CSc2nc(-c3cccc(Cl)c3)nc3c2Cc2c(CO)cnc(C)c2O3)cc1 ; what activity change, negative = inhibition value has been reported?
Result :: inactive
